Target: OTU domain-containing protein 3 (Homo sapiens)
Experiment: blocks human OTUD3 ubiquitin-rhodamine cleavage (AID 1645858)
Settings: purified OTUD3, Ub-rhodamine fluorescence, 2 h; at 25 µM; stronger effect = higher value
In all, about 47,000 compounds went through this assay and about 330 (0.7%) were called active. This excerpt belongs to a sample that is enriched for actives.
READOUT LABEL: inhibition

Please report inhibition for the following molecule: Cc1noc(C)c1C1CCCN1S(=O)(=O)c1cccc(Cl)c1 (stereo not given)
0.263% (inactive)

Please report inhibition for the following molecule: Cc1nn(CC(C)C)c(C)c1CC(=O)N1CCCC1c1cnn(C)c1 (stereo not given)
-0.626% (inactive)

Please report inhibition for the following molecule: CN1C[C@H]2CCN(S(=O)(=O)c3ccc(OC(F)(F)F)cc3)C[C@H]21
5.38% (inactive)

Please report inhibition for the following molecule: CC(C)C(NS(=O)(=O)c1ccccc1)C(=O)OCC(=O)Nc1cc([N+](=O)[O-])ccc1F (stereo not given)
6.16% (inactive)

Please report inhibition for the following molecule: CC(C)=CCC/C(C)=C\Cc1c(O)cc(C)c(C=O)c1O
-3.19% (inactive)

Please report inhibition for the following molecule: Cc1ccc(S(=O)(=O)N2C[C@H]3NC(=O)c4ccccc4C(=O)[C@@]3(C)C2)cc1
-3.74% (inactive)

Please report inhibition for the following molecule: Cn1cc(C(=O)N2CCCCC2c2nc(N)ncc2-c2ccccc2)ccc1=O (stereo not given)
-2.37% (inactive)

Please report inhibition for the following molecule: COc1ccc(-c2cc(=O)oc3c(C)c(OCc4ccccc4F)ccc23)cc1
1.77% (inactive)

Please report inhibition for the following molecule: Cc1cc(N2C(=O)c3oc4ccccc4c(=O)c3C2c2ccc(F)cc2)no1 (stereo not given)
-4.24% (inactive)

Please report inhibition for the following molecule: Cc1ccc(C(=O)N2C[C@H]3NC(=O)c4ccccc4C(=O)[C@@]3(C)C2)cc1
-0.0157% (inactive)

---

I'd be grateful if you could share measured inhibition for these entries.
Biological target: OTU domain-containing protein 3 (Homo sapiens)
Experiment: blocks human OTUD3 ubiquitin-rhodamine cleavage (AID 1645858)
Settings: purified OTUD3, Ub-rhodamine fluorescence, 2 h; at 25 µM; stronger effect = higher value
The whole screen tested about 47,000 compounds, of which about 330 (0.7%) were called active. The entries come from a sample that favours actives as a whole.
Give the value, in units of %, as a plain number.

Please report inhibition for the following compound: Cc1cc(C)nc(N(C(=O)C2CC2)c2ccc(OC(F)(F)F)cc2)n1
-7.68

Please report inhibition for the following compound: CC(=O)N1CCC(N2CCC[C@H]2c2nc(-c3ccc(OC4CCCCC4)nc3)no2)CC1
-18.8

Please report inhibition for the following compound: CCC(Oc1ccccc1)C(=O)NCc1ccc2c(c1)OCO2 (configuration not stated)
9.11

Please report inhibition for the following compound: Cc1nn(-c2ccccn2)c2ncc(C(=O)c3cc(F)ccc3O)cc12
-3.93

Please report inhibition for the following compound: COC(=O)c1ccc(NC(=O)CSc2nnc(C(C)Oc3ccccc3)n2C)cc1 (configuration not stated)
-2.47

Please report inhibition for the following compound: CC1(c2ncc(Cc3cccc(F)c3)o2)CCCN(C(=O)CN2CCCC2)C1 (configuration not stated)
-4.47

Please report inhibition for the following compound: CCn1c(CNC(=O)c2ccco2)nnc1SCC(=O)Nc1ccc(C)cc1
0.297

Please report inhibition for the following compound: CC(=O)N1Cc2ccccc2CC2(CCN(Cc3cccnc3)CC2)C1
4.03

Please report inhibition for the following compound: CC(C)=CCC(O)C1=CC(=O)c2c(O)ccc(O)c2C1=O (configuration not stated)
94.7

Please report inhibition for the following compound: CCN1CCN(c2ccc(-c3nc(-c4ccc(C)cc4)no3)cn2)CC1
-1.12

Please report inhibition for the following compound: CSc1nc2c(c(Nc3ccc(C(C)=O)cc3)n1)CCC2
-0.0554

Please report inhibition for the following compound: O=C(Nc1ccccc1Cl)N1C[C@H]2C[C@H]3[C@](C1)(CN(Cc1cccnc1)S3(=O)=O)O2
2.31

Please report inhibition for the following compound: FC(F)(F)c1cc(N2CCCCC2)nc(-c2ccccn2)n1
-3.6

Please report inhibition for the following compound: Cc1nnc(OCC(=O)Nc2ccc(OC(F)(F)F)cc2)c2ccccc12
35.8

Please report inhibition for the following compound: CCOC(=O)c1cc(C(=O)Nc2cccc(C(F)(F)F)c2)n2ccc(C)cc12
-0.911

Please report inhibition for the following compound: CCn1nccc1C1CCCN1C(=O)C12CC3CC(CC(C3)C1)C2 (configuration not stated)
-2.13

Please report inhibition for the following compound: Cc1ccc(NC(=O)C2CCN(S(=O)(=O)c3cnc[nH]3)CC2)cc1Cl
-2.32

Please report inhibition for the following compound: O=C(COc1cccc2ccc(N3CCC(Cc4ccccc4)CC3)nc12)NCc1ccc(F)cc1
36.2

Please report inhibition for the following compound: Cc1cc(C)n(CCCNS(=O)(=O)c2ccc(C(C)(C)C)cc2)n1
-3.74

Please report inhibition for the following compound: Cc1cnc2nc3c(cc2c1)CN(S(=O)(=O)c1cc(F)ccc1C)CC3
-230

Please report inhibition for the following compound: COc1ccc(CNC(=O)c2[nH]nc3c2CCc2ccccc2-3)cc1
-5.63

Please report inhibition for the following compound: O=C(CCc1nnc2ccc(N3CCCC3)nn12)NCc1ccc(F)cc1
12
